MEASURED_TARGET: T1, TX1BP3, O14907
T1 sequence (O14907 10-122, limits assumed, looked up): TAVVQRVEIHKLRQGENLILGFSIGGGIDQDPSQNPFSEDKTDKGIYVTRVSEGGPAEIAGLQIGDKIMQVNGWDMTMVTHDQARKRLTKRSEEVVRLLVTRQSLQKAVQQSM
ASSAY_PROTOCOL: holdup assay
Parameters: key: below the threshold = too weak to quantify, mostly under pKd 3.1 to 4
RUN_PARAMETERS: plain residues with an end cap or a label only (N-terminal biotin on a linker: ado-ado)
Label Y when pKd is at or above 4; anything below gets N.

BINDER	CATEGORY_LABEL
EVEEFPETSV [TRPV3, Q8NET8]	Y

## Task Is the recorded value of pKd equal to or greater than 4 for this binder? SSALYGESDL [ACTN2, P35609]
## Result Y

## Task Is the recorded value of pKd equal to or greater than 4 for this binder? KKMPSIESDV [GRIN2A, Q12879]
## Result Y

## Task Is the recorded value of pKd equal to or greater than 4 for this binder? LRSPRTPSEV [OR10G3, Q8NGC4]
## Result N
